Ref: ChEMBL document CHEMBL5032494

Molecular target: UniProtKB P41146
Sequence (P41146 whole entry): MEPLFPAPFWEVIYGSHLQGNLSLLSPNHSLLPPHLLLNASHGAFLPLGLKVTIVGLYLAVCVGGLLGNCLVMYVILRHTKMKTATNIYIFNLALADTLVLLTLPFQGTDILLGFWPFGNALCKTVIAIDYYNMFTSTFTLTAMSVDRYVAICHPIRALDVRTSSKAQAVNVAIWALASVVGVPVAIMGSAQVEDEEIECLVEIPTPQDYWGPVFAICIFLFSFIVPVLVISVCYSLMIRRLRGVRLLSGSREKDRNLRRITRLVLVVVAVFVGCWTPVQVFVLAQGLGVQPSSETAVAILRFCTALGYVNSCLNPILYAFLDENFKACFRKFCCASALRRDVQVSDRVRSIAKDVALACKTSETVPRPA
Experiment: Agonist activity at human NOP receptor expressed in CHO cells assessed as stimulation of calcium mobilization by Fluo-4 AM dye based analysis
Where a SMILES comes first, the peptide text is derived from it. [ ]: non-standard residue; d: D form. Phe(4-NH2) = Nc1ccc(C[C@H](N)C(=O)O)cc1; 1Nal = N[C@@H](Cc1cccc2ccccc12)C(=O)O; Dmt = Cc1cc(O)cc(C)c1C[C@H](N)C(=O)O
Provide the reported pEC50 of each item.
The value called pEC50 is obtained by taking minus log10 of the concentration in mol/L.

Identify measured pEC50 corresponding to C[C@H](NC(=O)CNC(=O)[C@H](Cc1ccc(N)cc1)NC(=O)[C@H](Cc1ccccc1)NC(=O)CNC(=O)CNC(=O)[C@@H](N)Cc1ccc(O)cc1)C(=O)N[C@@H](CCCNC(=N)N)C(=O)N[C@@H](CCCCN)C(=O)N[C@@H](CO)C(=O)N[C@@H](C)C(=O)N[C@@H](CCCNC(=N)N)C(=O)N[C@@H](CCCCN)C(N)=O (H-YGGF[Phe(4-NH2)]GARKSARK-NH2)
7.52

Identify measured pEC50 corresponding to Cc1cc(O)cc(C)c1C[C@H](N)C(=O)NCC(=O)NCC(=O)N[C@@H](Cc1ccccc1)C(=O)N[C@@H](Cc1cccc2ccccc12)C(=O)NCC(=O)N[C@@H](C)C(=O)N[C@@H](CCCNC(=N)N)C(=O)N[C@@H](CCCCN)C(=O)N[C@@H](CO)C(=O)N[C@@H](C)C(=O)N[C@@H](CCCNC(=N)N)C(=O)N[C@@H](CCCCN)C(N)=O (H-[Dmt]GGF[1Nal]GARKSARK-NH2)
7.22

Identify measured pEC50 corresponding to Cc1cc(O)cc(C)c1C[C@H](NC(=O)[C@H](Cc1ccccc1)NC(=O)CNC(=O)CNC(=O)[C@@H](N)Cc1ccc(O)cc1)C(=O)NCC(=O)N[C@@H](C)C(=O)N[C@@H](CCCNC(=N)N)C(=O)N[C@@H](CCCCN)C(=O)N[C@@H](CO)C(=O)N[C@@H](C)C(=O)N[C@@H](CCCNC(=N)N)C(=O)N[C@@H](CCCCN)C(N)=O (H-YGGF[Dmt]GARKSARK-NH2)
7.75

Identify measured pEC50 corresponding to Cc1cc(O)cc(C)c1C[C@H](N)C(=O)NCC(=O)NCC(=O)N[C@@H](Cc1ccccc1)C(=O)N[C@@H](Cc1ccccc1)C(=O)NCC(=O)N[C@@H](C)C(=O)N[C@@H](CCCNC(=N)N)C(=O)N[C@@H](CCCCN)C(=O)N[C@@H](CO)C(=O)N[C@@H](C)C(=O)N[C@@H](CCCNC(=N)N)C(=O)N[C@@H](CCCCN)C(N)=O (H-[Dmt]GGFFGARKSARK-NH2)
7.25

Identify measured pEC50 corresponding to Cc1cc(O)cc(C)c1C[C@H](N)C(=O)NCC(=O)NCC(=O)N[C@@H](Cc1ccccc1)C(=O)N[C@@H](Cc1ccc(O)cc1)C(=O)NCC(=O)N[C@@H](C)C(=O)N[C@@H](CCCNC(=N)N)C(=O)N[C@@H](CCCCN)C(=O)N[C@@H](CO)C(=O)N[C@@H](C)C(=O)N[C@@H](CCCNC(=N)N)C(=O)N[C@@H](CCCCN)C(N)=O (H-[Dmt]GGFYGARKSARK-NH2)
6.91

Identify measured pEC50 corresponding to Cc1cc(O)cc(C)c1C[C@H](NC(=O)[C@H](Cc1ccccc1)NC(=O)CNC(=O)CNC(=O)[C@@H](N)Cc1c(C)cc(O)cc1C)C(=O)NCC(=O)N[C@@H](C)C(=O)N[C@@H](CCCNC(=N)N)C(=O)N[C@@H](CCCCN)C(=O)N[C@@H](CO)C(=O)N[C@@H](C)C(=O)N[C@@H](CCCNC(=N)N)C(=O)N[C@@H](CCCCN)C(N)=O (H-[Dmt]GGF[Dmt]GARKSARK-NH2)
8.39

* * *

Molecular target: Mu-type opioid receptor (Homo sapiens)
Assay: Agonist activity at human mu opioid receptor expressed in CHO cells assessed as stimulation of calcium mobilization by measuring concentration relative curve at 10 uM by Fluo-4 AM dye based analysis
Format: functional, cell-based
Active and inactive are the calls of the source. The rule behind the calls is not given here. Where a SMILES comes first, the peptide text is derived from it. [ ]: non-standard residue; d: D form. Bip = N[C@@H](Cc1ccc(-c2ccccc2)cc1)C(=O)O; Dab = NCC[C@H](N)C(=O)O; Abu = CC[C@H](N)C(=O)O
READOUT LABEL: pEC50

[[record]]
compound = "C[C@H](NC(=O)CNC(=O)[C@H](CCN)NC(=O)[C@H](Cc1ccccc1)NC(=O)CNC(=O)CNC(=O)[C@@H](N)Cc1ccc(O)cc1)C(=O)N[C@@H](CCCNC(=N)N)C(=O)N[C@@H](CCCCN)C(=O)N[C@@H](CO)C(=O)N[C@@H](C)C(=O)N[C@@H](CCCNC(=N)N)C(=O)N[C@@H](CCCCN)C(N)=O (H-YGGF[Dab]GARKSARK-NH2)"
system_name = "Mu-type opioid receptor (Homo sapiens)"
recorded_measurement = "inactive"

[[record]]
compound = "C[C@H](NC(=O)CNC(=O)[C@H](Cc1ccc(-c2ccccc2)cc1)NC(=O)[C@H](Cc1ccccc1)NC(=O)CNC(=O)CNC(=O)[C@@H](N)Cc1ccc(O)cc1)C(=O)N[C@@H](CCCNC(=N)N)C(=O)N[C@@H](CCCCN)C(=O)N[C@@H](CO)C(=O)N[C@@H](C)C(=O)N[C@@H](CCCNC(=N)N)C(=O)N[C@@H](CCCCN)C(N)=O (H-YGGF[Bip]GARKSARK-NH2)"
system_name = "Mu-type opioid receptor (Homo sapiens)"
recorded_measurement = "inactive"

[[record]]
compound = "CC[C@H](NC(=O)[C@H](Cc1ccccc1)NC(=O)CNC(=O)CNC(=O)[C@@H](N)Cc1ccc(O)cc1)C(=O)NCC(=O)N[C@@H](C)C(=O)N[C@@H](CCCNC(=N)N)C(=O)N[C@@H](CCCCN)C(=O)N[C@@H](CO)C(=O)N[C@@H](C)C(=O)N[C@@H](CCCNC(=N)N)C(=O)N[C@@H](CCCCN)C(N)=O (H-YGGF[Abu]GARKSARK-NH2)"
system_name = "Mu-type opioid receptor (Homo sapiens)"
recorded_measurement = "inactive"


* * *

Provide the reported EC50 of each item.
Target: Mu-type opioid receptor (Homo sapiens, UniProt P35372)
Sequence (P35372 whole entry): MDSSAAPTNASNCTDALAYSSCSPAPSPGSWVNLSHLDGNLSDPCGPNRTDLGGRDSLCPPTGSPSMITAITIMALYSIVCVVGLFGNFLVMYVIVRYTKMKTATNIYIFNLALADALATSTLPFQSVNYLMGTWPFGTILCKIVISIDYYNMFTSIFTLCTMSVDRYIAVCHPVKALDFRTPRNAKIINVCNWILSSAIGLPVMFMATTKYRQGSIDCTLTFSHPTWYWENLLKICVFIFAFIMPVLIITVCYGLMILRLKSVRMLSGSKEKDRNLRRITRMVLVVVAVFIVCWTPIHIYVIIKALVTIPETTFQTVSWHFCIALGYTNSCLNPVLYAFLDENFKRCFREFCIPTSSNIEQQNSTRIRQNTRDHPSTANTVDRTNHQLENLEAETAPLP
Test: Agonist activity at human mu opioid receptor expressed in CHO cells assessed as stimulation of calcium mobilization by Fluo-4 AM dye based analysis
Where a SMILES comes first, the peptide text is derived from it. [ ]: non-standard residue; d: D form. Phe(4-NH2) = Nc1ccc(C[C@H](N)C(=O)O)cc1; Dmt = Cc1cc(O)cc(C)c1C[C@H](N)C(=O)O
Don't forget the unit after the value.

Recall the reported EC50 of Cc1cc(O)cc(C)c1C[C@H](NC(=O)[C@H](Cc1ccccc1)NC(=O)CNC(=O)CNC(=O)[C@@H](N)Cc1ccc(O)cc1)C(=O)NCC(=O)N[C@@H](C)C(=O)N[C@@H](CCCNC(=N)N)C(=O)N[C@@H](CCCCN)C(=O)N[C@@H](CO)C(=O)N[C@@H](C)C(=O)N[C@@H](CCCNC(=N)N)C(=O)N[C@@H](CCCCN)C(N)=O (H-YGGF[Dmt]GARKSARK-NH2) on Mu-type opioid receptor (Homo sapiens, UniProt P35372) and write it down.
195 nM

Recall the reported EC50 of Cc1cc(O)cc(C)c1C[C@H](N)C(=O)NCC(=O)NCC(=O)N[C@@H](Cc1ccccc1)C(=O)N[C@@H](Cc1ccc(O)cc1)C(=O)NCC(=O)N[C@@H](C)C(=O)N[C@@H](CCCNC(=N)N)C(=O)N[C@@H](CCCCN)C(=O)N[C@@H](CO)C(=O)N[C@@H](C)C(=O)N[C@@H](CCCNC(=N)N)C(=O)N[C@@H](CCCCN)C(N)=O (H-[Dmt]GGFYGARKSARK-NH2) on Mu-type opioid receptor (Homo sapiens, UniProt P35372) and write it down.
15.5 nM

Recall the reported EC50 of C[C@H](NC(=O)CNC(=O)[C@H](Cc1ccc(N)cc1)NC(=O)[C@H](Cc1ccccc1)NC(=O)CNC(=O)CNC(=O)[C@@H](N)Cc1ccc(O)cc1)C(=O)N[C@@H](CCCNC(=N)N)C(=O)N[C@@H](CCCCN)C(=O)N[C@@H](CO)C(=O)N[C@@H](C)C(=O)N[C@@H](CCCNC(=N)N)C(=O)N[C@@H](CCCCN)C(N)=O (H-YGGF[Phe(4-NH2)]GARKSARK-NH2) on Mu-type opioid receptor (Homo sapiens, UniProt P35372) and write it down.
372 nM

* * *

Tested on: CHO
Assay: Concentration ratio of human NOP receptor expressed in CHO cells to human mu opioid receptor expressed in CHO cells
Type: cell-based
Where a SMILES comes first, the peptide text is derived from it. [ ]: non-standard residue; d: D form. Phe(4-NO2) = N[C@@H](Cc1ccc([N+](=O)[O-])cc1)C(=O)O; Phe(4-NH2) = Nc1ccc(C[C@H](N)C(=O)O)cc1; Dmt = Cc1cc(O)cc(C)c1C[C@H](N)C(=O)O; Phg = N[C@H](C(=O)O)c1ccccc1
Think of 0.5 as a floor: if Ratio stands on it or above, it is condition met; beneath it, condition not met.

API: above_or_equal(metric=Ratio, cutoff=0.5) for item Cc1cc(O)cc(C)c1C[C@H](N)C(=O)NCC(=O)NCC(=O)N[C@@H](Cc1ccccc1)C(=O)N[C@@H](Cc1ccc(N)cc1)C(=O)NCC(=O)N[C@@H](C)C(=O)N[C@@H](CCCNC(=N)N)C(=O)N[C@@H](CCCCN)C(=O)N[C@@H](CO)C(=O)N[C@@H](C)C(=O)N[C@@H](CCCNC(=N)N)C(=O)N[C@@H](CCCCN)C(N)=O (H-[Dmt]GGF[Phe(4-NH2)]GARKSARK-NH2)
condition met

API: above_or_equal(metric=Ratio, cutoff=0.5) for item Cc1cc(O)cc(C)c1C[C@H](N)C(=O)NCC(=O)NCC(=O)N[C@@H](Cc1ccccc1)C(=O)N[C@H](C(=O)NCC(=O)N[C@@H](C)C(=O)N[C@@H](CCCNC(=N)N)C(=O)N[C@@H](CCCCN)C(=O)N[C@@H](CO)C(=O)N[C@@H](C)C(=O)N[C@@H](CCCNC(=N)N)C(=O)N[C@@H](CCCCN)C(N)=O)c1ccccc1 (H-[Dmt]GGF[Phg]GARKSARK-NH2)
condition met

API: above_or_equal(metric=Ratio, cutoff=0.5) for item `Cc1cc(O)cc(C)c1C[C@H](N)C(=O)NCC(=O)NCC(=O)N[C@@H](Cc1ccccc1)C(=O)N[C@H](C(=O)NCC(=O)N[C@@H](C)C(=O)N[C@@H](CCCNC(=N)N)C(=O)N[C@@H](CCCCN)C(=O)N[C@@H](CO)C(=O)N[C@@H](C)C(=O)N[C@@H](CCCNC(=N)N)C(=O)N[C@@H](CCCCN)C(N)=O)[C@@H](C)O`
condition not met

API: above_or_equal(metric=Ratio, cutoff=0.5) for item Cc1cc(O)cc(C)c1C[C@H](NC(=O)[C@H](Cc1ccccc1)NC(=O)CNC(=O)CNC(=O)[C@@H](N)Cc1ccc(O)cc1)C(=O)NCC(=O)N[C@@H](C)C(=O)N[C@@H](CCCNC(=N)N)C(=O)N[C@@H](CCCCN)C(=O)N[C@@H](CO)C(=O)N[C@@H](C)C(=O)N[C@@H](CCCNC(=N)N)C(=O)N[C@@H](CCCCN)C(N)=O (H-YGGF[Dmt]GARKSARK-NH2)
condition not met

API: above_or_equal(metric=Ratio, cutoff=0.5) for item C[C@H](NC(=O)CNC(=O)[C@H](Cc1ccc([N+](=O)[O-])cc1)NC(=O)[C@H](Cc1ccccc1)NC(=O)CNC(=O)CNC(=O)[C@@H](N)Cc1ccc(O)cc1)C(=O)N[C@@H](CCCNC(=N)N)C(=O)N[C@@H](CCCCN)C(=O)N[C@@H](CO)C(=O)N[C@@H](C)C(=O)N[C@@H](CCCNC(=N)N)C(=O)N[C@@H](CCCCN)C(N)=O (H-YGGF[Phe(4-NO2)]GARKSARK-NH2)
condition not met
